B1: library; numbered along this chain (parent)
chain: MRKPRAAVGSGHRKQAASQEGRQKHAKNNSQAKPSACDGLARQPEEVVLQASVSSYHLFRDVAEVTAFRGSLLSWYDQEKRDLPWRRRAEDEMDLDRRAYAVWVSEVMLQQTQVATVINYYTGWMQKWPTLQDLASASLEEVNQLWAGLGYYSRGRRLQEGARKVVEELGGHMPRTAETLQQLLPGVGRYTAGAIASIAFGQATGVVDGNVARVLCRVRAIGADPSSTLVSQQLWGLAQQLVDPARPGDFNQAAMELGATVCTPQRPLCSQCPVESLCRARQRVEQEQLLASGSLSGSPDVEECAPNTGQCHLCLPPSEPWDQTLGVVNFPRKASRKPPREESSATCVLEQPGALGAQILLVQRPNSGLLAGLWEFPSVTWEPSEQLQRKALLQELQRWAGPLPATHLRHLGEVVHTFSHIKLTYQVYGLALEGQTPVTTVPPGARWLTQEEFHTAAVSTAMKKVFRVYQGQQPGTCMGSKRSQVSSPCSRKKPRMGQQVLDNFFRSHISTDAHSLNSAAQ

- Variants of: B1
- procedure.summary: 8OG:A repair function score (normalized; synonymous = 0, nonsense = -1) (normalized log-likelihood score); higher = more repair activity (WT-like);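 further: cells sorted at 72 h after reporter transfection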
- run.conditions: with 8OG:A DNA repair reporter (GFP) in HEK-293 MUTYH KO cells
8OG:A repair function score below -0.05 gives Not satisfied; 8OG:A repair function score at or above it gives Satisfied.

| mutant.label | category.label |
| --- | --- |
| E375P | Not satisfied |
| A457P | Not satisfied |
| P474N | Not satisfied |
| V441I | Satisfied |
| G429D | Not satisfied |
| R495V | Satisfied |
| S52T | Satisfied |
| L295E | Satisfied |
| V468W | Not satisfied |
| Q363E | Not satisfied |
| T228L | Satisfied |
| E385H | Not satisfied |
| S231I | Satisfied |
| M93H | Satisfied |
| Y120S | Not satisfied |
| P404W | Not satisfied |
| H407Q | Satisfied |
| G209I | Not satisfied |
| L289I | Satisfied |
| L277R | Not satisfied |
| A431D | Not satisfied |
